# Target Under Test: HIV Env of isolate T278-50 (clade AG) (HIV)
# Test Summary: cell-based or functional assay
Measured Endpoint: IC50 (µg/ml) with constrains (µg/mL)

* ePGDM13 (antibody, V domains shown) VH: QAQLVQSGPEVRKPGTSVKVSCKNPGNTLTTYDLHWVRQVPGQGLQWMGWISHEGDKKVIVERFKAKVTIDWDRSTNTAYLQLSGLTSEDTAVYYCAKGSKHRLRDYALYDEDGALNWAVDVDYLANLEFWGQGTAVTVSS VL: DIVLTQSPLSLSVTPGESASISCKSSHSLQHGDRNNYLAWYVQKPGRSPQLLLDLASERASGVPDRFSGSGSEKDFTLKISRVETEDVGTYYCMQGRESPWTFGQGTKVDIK | 1.6
